# protocol-summary: Stability in mouse serum assessed as half life at 10 mM incubated for 12 hrs by RP-HPLC analysis
# Type: ADME, cell-free
Non-standard residues stand in square brackets, D forms with d. Residues, ends and D or L forms follow the SMILES beside them. Aad = N[C@@H](CCCC(=O)O)C(=O)O
So I've got a bunch of compounds here, and I need their half-life at 10000 µM values.
Give bare numbers, in h.

Reference set (2 entries):
# compound, readout-unit, half-life at 10000 µM
rows = [
    ("CC(C)C[C@H](NC(=O)[C@H](CCCCN)NC(=O)[C@H](CCCCN)NC(=O)[C@H](CC(C)C)NC(=O)[C@H](CC(C)C)NC(=O)[C@H](CCCCN)NC(=O)[C@H](CCCCN)NC(=O)[C@H](CC(C)C)NC(=O)[C@H](CC(C)C)NC(=O)[C@H](CCCCN)NC(=O)[C@H](CCCCN)NC(=O)[C@H](CC(C)C)NC(=O)[C@@H](N)CC(C)C)C(=O)N[C@@H](CCCC(=O)O)C(N)=O (H-LLKKLLKKLLKKL[Aad]-NH2)", "h", 7.6),
    ("CC(C)C[C@H](NC(=O)[C@H](CCCCN)NC(=O)[C@H](CCCCN)NC(=O)[C@H](CC(C)C)NC(=O)[C@H](CC(C)C)NC(=O)[C@H](CCCCN)NC(=O)[C@H](CCCCN)NC(=O)[C@H](CC(C)C)NC(=O)[C@H](CC(C)C)NC(=O)[C@H](CCCCN)NC(=O)[C@H](CCCCN)NC(=O)[C@H](CC(C)C)NC(=O)[C@@H](N)CC(C)C)C(=O)N[C@@H](CCC(=O)O)C(N)=O (H-LLKKLLKKLLKKLE-NH2)", "h", 7.78),
]

Input line: Return half-life at 10000 µM for the following compound: CC(C)C[C@H](NC(=O)[C@H](CC(C)C)NC(=O)[C@H](CCCCN)NC(=O)[C@H](CCCCN)NC(=O)[C@H](CC(C)C)NC(=O)[C@H](CC(C)C)NC(=O)[C@H](CCCCN)NC(=O)[C@H](CCCCN)NC(=O)[C@H](CC(C)C)NC(=O)[C@H](CC(C)C)NC(=O)[C@H](CCCCN)NC(=O)[C@H](CCCCN)NC(=O)[C@H](CC(C)C)NC(=O)[C@@H](N)CC(C)C)C(N)=O (H-LLKKLLKKLLKKLL-NH2)
Output line: 11.1
